- Assay protocol: Cmax in Beagle dog at 10 mg/kg, po
- Type: ADME, organism-based, Canis lupus familiaris
- Design: dose 10 mg/kg, route oral
- Applied conditions: in vivo
Quantity measured: Cmax

C=CC(=O)N1CCN(CCCn2c(=O)c(-c3c(Cl)c(OC)cc(OC)c3Cl)cc3cnc(NC)nc32)CC1 [PRN-1371]
1100 ng/mL

---

- Assay protocol: Volume of distribution at steady state in Beagle dog at 2 mg/kg, iv
- Assay type: ADME, organism-based, Canis lupus familiaris
- Applied conditions: in vivo, read-out: Vdss
Quantity measured: Vd

C=CC(=O)N1CCN(CCCn2c(=O)c(-c3c(Cl)c(OC)cc(OC)c3Cl)cc3cnc(NC)nc32)CC1 [PRN-1371]
2.9 L/kg

---

- Assay protocol: Cmax in cynomolgus monkey at 10 mg/kg, po
- Assay type: ADME, organism-based, Macaca fascicularis
- Parameters: dose 10 mg/kg, route oral
- Applied conditions: in vivo
Quantity measured: Cmax

C=CC(=O)N1CCN(CCCn2c(=O)c(-c3c(Cl)c(OC)cc(OC)c3Cl)cc3cnc(NC)nc32)CC1
95.8 ng/mL

---

- Assay protocol: AUC in Sprague-Dawley rat at 20 mg/kg, po
- Assay type: ADME, organism-based
- Applied conditions: in vivo
Quantity measured: AUC (ng·h/mL)

C=CC(=O)N1CCN(CCCn2c(=O)c(-c3c(Cl)c(OC)cc(OC)c3Cl)cc3cnc(NC)nc32)CC1 [PRN-1371]
4350

---

- Assay protocol: Oral bioavailability in cynomolgus monkey at 10 mg/kg
- Format: ADME, organism-based, Macaca fascicularis
- Applied conditions: in vivo
Quantity measured: bioavailability (%)

C=CC(=O)N1CCN(CCCn2c(=O)c(-c3c(Cl)c(OC)cc(OC)c3Cl)cc3cnc(NC)nc32)CC1
2.3

---

- Assay protocol: Oral bioavailability in Beagle dog at 10 mg/kg
- Type: ADME, organism-based, Canis lupus familiaris
- Applied conditions: in vivo
Quantity measured: bioavailability (%)

C=CC(=O)N1CCN(CCCn2c(=O)c(-c3c(Cl)c(OC)cc(OC)c3Cl)cc3cnc(NC)nc32)CC1 [PRN-1371]
94

---

- Assay protocol: AUC in Beagle dog at 10 mg/kg, po
- Type: ADME, organism-based, Canis lupus familiaris
- Applied conditions: in vivo
Quantity measured: AUC (ng·h/mL)

C=CC(=O)N1CCN(CCCn2c(=O)c(-c3c(Cl)c(OC)cc(OC)c3Cl)cc3cnc(NC)nc32)CC1 [PRN-1371]
1340

---

- Assay protocol: Half life in cynomolgus monkey at 10 mg/kg, po
- Type: ADME, organism-based, Macaca fascicularis
- Applied conditions: in vivo
Quantity measured: half-life (min)

C=CC(=O)N1CCN(CCCn2c(=O)c(-c3c(Cl)c(OC)cc(OC)c3Cl)cc3cnc(NC)nc32)CC1
29.2

---

- Assay protocol: Clearance in Beagle dog at 2 mg/kg, iv
- Type: ADME, organism-based, Canis lupus familiaris
- Applied conditions: in vivo
Quantity measured: clearance (mL/min/kg)

C=CC(=O)N1CCN(CCCn2c(=O)c(-c3c(Cl)c(OC)cc(OC)c3Cl)cc3cnc(NC)nc32)CC1 [PRN-1371]
117

---

- Assay protocol: Clearance in cynomolgus monkey at 1.23 mg/kg, iv
- Type: ADME, organism-based, Macaca fascicularis
- Applied conditions: in vivo
Quantity measured: clearance

C=CC(=O)N1CCN(CCCn2c(=O)c(-c3c(Cl)c(OC)cc(OC)c3Cl)cc3cnc(NC)nc32)CC1 [PRN-1371]
42.9 mL/min/kg

---

- Assay protocol: Half life in Sprague-Dawley rat at 2 mg/kg, iv
- Format: ADME, organism-based
- Applied conditions: in vivo
Quantity measured: half-life (min)

C=CC(=O)N1CCN(CCCn2c(=O)c(-c3c(Cl)c(OC)cc(OC)c3Cl)cc3cnc(NC)nc32)CC1
45.8

---

- Assay protocol: Volume of distribution at steady state in Sprague-Dawley rat at 2 mg/kg, iv
- Assay type: ADME, organism-based
- Applied conditions: in vivo, read-out: Vdss
Quantity measured: Vd (L/kg)

C=CC(=O)N1CCN(CCCn2c(=O)c(-c3c(Cl)c(OC)cc(OC)c3Cl)cc3cnc(NC)nc32)CC1
7.2

---

- Assay protocol: AUC in Beagle dog at 2 mg/kg, iv
- Type: ADME, organism-based, Canis lupus familiaris
- Applied conditions: in vivo
Quantity measured: AUC (ng·h/mL)

C=CC(=O)N1CCN(CCCn2c(=O)c(-c3c(Cl)c(OC)cc(OC)c3Cl)cc3cnc(NC)nc32)CC1
284

---

- Assay protocol: in vitro
- Applied conditions: human, whole blood
Quantity measured: remaining at 2 h (%)

C=CC(=O)N1CCN(CCCn2c(=O)c(-c3c(Cl)c(OC)cc(OC)c3Cl)cc3cnc(NC)nc32)CC1
73

---

- Assay protocol: Clearance in Sprague-Dawley rat at 2 mg/kg, iv
- Assay type: ADME, organism-based
- Applied conditions: in vivo
Quantity measured: clearance (mL/min/kg)

C=CC(=O)N1CCN(CCCn2c(=O)c(-c3c(Cl)c(OC)cc(OC)c3Cl)cc3cnc(NC)nc32)CC1
160

---

- Assay protocol: Cmax in Beagle dog at 2 mg/kg, iv
- Format: ADME, organism-based, Canis lupus familiaris
- Parameters: dose 2 mg/kg, route intravenous
- Applied conditions: in vivo
Quantity measured: Cmax (ng/mL)

C=CC(=O)N1CCN(CCCn2c(=O)c(-c3c(Cl)c(OC)cc(OC)c3Cl)cc3cnc(NC)nc32)CC1
1090

---

- Assay protocol: Cmax in Sprague-Dawley rat at 2 mg/kg, iv
- Assay type: ADME, organism-based
- Design: dose 2 mg/kg, route intravenous
- Applied conditions: in vivo
Quantity measured: Cmax

C=CC(=O)N1CCN(CCCn2c(=O)c(-c3c(Cl)c(OC)cc(OC)c3Cl)cc3cnc(NC)nc32)CC1
596 ng/mL

---

- Assay protocol: Cmax in cynomolgus monkey at 1.23 mg/kg, iv
- Format: ADME, organism-based, Macaca fascicularis
- Set-up: dose 1.23 mg/kg, route intravenous
- Applied conditions: in vivo
Quantity measured: Cmax (ng/mL)

C=CC(=O)N1CCN(CCCn2c(=O)c(-c3c(Cl)c(OC)cc(OC)c3Cl)cc3cnc(NC)nc32)CC1 [PRN-1371]
999

---

- Assay protocol: Half life in cynomolgus monkey at 1.23 mg/kg, iv
- Type: ADME, organism-based, Macaca fascicularis
- Applied conditions: in vivo
Quantity measured: half-life

C=CC(=O)N1CCN(CCCn2c(=O)c(-c3c(Cl)c(OC)cc(OC)c3Cl)cc3cnc(NC)nc32)CC1
20.9 min

---

- Assay protocol: in vitro
- Applied conditions: human, plasma
Quantity measured: remaining at 2 h (%)

C=CC(=O)N1CCN(CCCn2c(=O)c(-c3c(Cl)c(OC)cc(OC)c3Cl)cc3cnc(NC)nc32)CC1 [PRN-1371]
70
